A collection of compounds and their measured IC50
# Target Or System: human thrombocytes
# Assay Overview: Fibrinogen binding test on human thrombocytes with 125I-fibrinogen replaced by a 3H-labelled ligand (footnote *)
# Condition Label: * 125I fibrinogen replaced by 3H-labelled (3S,5S)-5-[(4amidino-4-biphenylyl)-oxymethyl... pyrrolidon ligand; 20 min; read-out: Fibrinogen binding test ID50
// note: answer is a bare numeric in nM

Compound: N=C(N)c1ccc(-c2cc(C(=O)N[C@H]3CC[C@H](C(=O)O)CC3)c(=O)n(Cc3ccccc3)n2)cc1 [1(18)]
Endpoint Value: 33

What measured IC50 goes with N=C(N)c1ccc(-c2cc(C(=O)N[C@H]3CC[C@H](C(=O)O)CC3)c(=O)n(CC(=O)N3CCOCC3)n2)cc1 [1(30)] ? 33

Value source: patent US5563268A
